B1: glmS ribozyme (parent)
chain: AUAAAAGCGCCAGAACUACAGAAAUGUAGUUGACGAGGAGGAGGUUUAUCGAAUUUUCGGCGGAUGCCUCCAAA

Variants of: B1
Test protocol: self-cleavage kobs at 160 uM GlcN6P; higher = faster cleavage; RNA array
Stated conditions: with glucosamine-6-phosphate
Fewer inactive variants are shown than the library holds.
Each entry below lists one item and its recorded self-cleavage kobs at 160 uM GlcN6P value.

Solved cases below.
Fill in the blank: the reported self-cleavage kobs at 160 uM GlcN6P of `AUAAAAGCGCCAGAACUACAGAAAUGUAGUUGACGAGGAGGUGGUUUAUCUAAUUUUCGGCGGAUGCCUCCAAA` is ____.
< 1e-05 s⁻¹

Fill in the blank: the reported self-cleavage kobs at 160 uM GlcN6P of `AUAAAAGGGUCAGAACUACAGAAAUGUAGUUGACGAGGAGGAGGUUUAUCUAUUUUUCGGCGGAUGCCUCCAAA` is ____.
< 1e-05 s⁻¹

---
Fill in the blank: the reported self-cleavage kobs at 160 uM GlcN6P of `AUAAAAGCGCCAGAACUACAGAAAUGUAGUUGACGAGGACGAGGUUUAUCGAAUUUUCGGCGGAUGCCUUGAAA` is ____.
0.000296 s⁻¹

Fill in the blank: the reported self-cleavage kobs at 160 uM GlcN6P of `AUAAAAGAGCCAGAACUACAGAAAUGUAGUUGACGAGGAGGAGGUUUAUCGAAUUUUCGGCGAAUGCCUCCAAA` is ____.
< 1e-05 s⁻¹

Fill in the blank: the reported self-cleavage kobs at 160 uM GlcN6P of `AUAAAAGCGCCAGAACUACAGAAAUGUAGUAGACGAGGAGGAGGGUUAUCGAAUUUUCGGCGGAUGCCUCCAAA` is ____.
0.000168 s⁻¹

Fill in the blank: the reported self-cleavage kobs at 160 uM GlcN6P of `AUAAAAGCGCCAGAACUACAGAAAUGUAGUUGACGAGGAGGAGGGUUAUCGAGUUUUCGGCGGAUGCCUCCAAA` is ____.
0.000367 s⁻¹

Fill in the blank: the reported self-cleavage kobs at 160 uM GlcN6P of `AUAAAAUCGCCAGAACUACAGAAAUGUAGUUGACGAGAAGGAGGUUUAUCGAAUUUUCGGCGGAUGCCUCCAAA` is ____.
< 1e-05 s⁻¹

Fill in the blank: the reported self-cleavage kobs at 160 uM GlcN6P of `AUAAAAGCGCCAGAACUACAGAAAUGUAGUUGACGUGGAGGAGGUUUAUCGAAUUUUCGGCGGAGGCCUCCAAA` is ____.
< 1e-05 s⁻¹

Fill in the blank: the reported self-cleavage kobs at 160 uM GlcN6P of `AUAAAAGCGCCAGAGCUACAGAAAUGUAGUUGACGAGGAGGAGGUUUAUCGAAUUAUCGGCGGAUGCCUCCAAA` is ____.
0.000554 s⁻¹

Fill in the blank: the reported self-cleavage kobs at 160 uM GlcN6P of `AUAAAAGCGCCAGAACUACAGAAAUGUAGUUGACGAGGAGGUGGUUUAUCGAAUUUUCGGCGUAUGCCUCCAAA` is ____.
< 1e-05 s⁻¹
